- Target Or Test System: T1, human GIP receptor (human) (UniProt P48546)
- T1 sequence (looked up): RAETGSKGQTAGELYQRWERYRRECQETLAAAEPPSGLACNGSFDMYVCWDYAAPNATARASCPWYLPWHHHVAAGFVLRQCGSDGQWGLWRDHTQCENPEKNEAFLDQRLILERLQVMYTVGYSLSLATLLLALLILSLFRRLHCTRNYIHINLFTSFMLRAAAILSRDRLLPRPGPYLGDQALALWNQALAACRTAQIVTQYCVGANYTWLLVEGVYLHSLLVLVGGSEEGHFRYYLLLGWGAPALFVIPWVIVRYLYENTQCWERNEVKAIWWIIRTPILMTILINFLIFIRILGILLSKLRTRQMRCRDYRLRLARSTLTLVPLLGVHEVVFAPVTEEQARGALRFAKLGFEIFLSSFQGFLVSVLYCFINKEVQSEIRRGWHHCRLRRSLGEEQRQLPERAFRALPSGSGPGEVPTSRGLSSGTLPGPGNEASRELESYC
- Protocol Summary: cell-based or functional assay
Starred links: 1 amine or outer side, 2 acyl side, 3 side chain; linkers in the order of their positions; H or OH if unused. Non-standard residues stand in square brackets, D forms with d. Groups on a side chain read outwards from the residue. No end group written: not given here. *: point of attachment. C20 diacid = O=C(O)CCCCCCCCCCCCCCCCCCC(=O)*; αMePhe(2-F) = C[C@](N)(Cc1ccccc1F)C(=O)O; γGlu = O=C(O)[C@H](CCC(=O)[*:2])N[*:1]; αMeL = CC(C)C[C@](C)(N)C(=O)O; AEEA = NCCOCCOCC(=O)O; Aib = CC(C)(N)C(=O)O
Readout Name: cAMP Rel EC50 (in the presence of 1% HSA)

Binder | Value Measured
YXQGTXTSDXXILLDXKAQXXFIEYLIEGGPSSGEPPPEGGEE (non-natural residues, acylated Lys ((γGlu)2-C18 diacid), C-terminal amide; synthetic construct; SITE 2: note = 2-Aminoisobutyric Acid; SITE 6: note = alpha-methyl-2-fluoro-L-phenylalanine; SITE 10: note = 3-(4-Pyridyl)-L-alanine; SITE 11: note = alpha-methyl-L-serine; SITE 16: note = L-ornithine; SITE 17: note = Lysine is chemically modified through conjugation of the epsi) [Example 605] | 6.69 nM
YXQGTFTSDXXQXLDXKAQXQFIQXLIEXGPSSGEPPPSGGGE (non-natural residues, lipidated Lys, C-terminal amide; synthetic construct; SITE 2: note = 2-Aminoisobutyric Acid; SITE 10: note = 3-(4-Pyridyl)-L-alanine; SITE 11: note = alpha-methyl-L-serine; SITE 13: note = alpha-methyl-leucine; SITE 16: note = L-ornithine; SITE 17: note = Lysine is chemically modified through conjugation of the epsilon-amino group) [Example 1183] | 3.16 nM
YXQGTXTSDXXILLDXKAQXXFIEYLIEGGPSSGEPPPEGAEE (non-natural residues, (γGlu)2-C18 diacid lysine acylation, C-terminal amide; synthetic construct; SITE 2: note = 2-Aminoisobutyric Acid; SITE 6: note = alpha-methyl-2-fluoro-L-phenylalanine; SITE 10: note = 3-(4-Pyridyl)-L-alanine; SITE 11: note = alpha-methyl-L-serine; SITE 16: note = L-ornithine; SITE 17: note = Lysine is chemically modified through conjugation of the epsi) [Example 604] | 4.84 nM
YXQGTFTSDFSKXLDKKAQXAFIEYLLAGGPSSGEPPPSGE (synthetic construct; SITE 2: note = 2-Aminoisobutyric Acid; SITE 13: note = alpha-methyl-leucine; SITE 17: note = Lysine is chemically modified through conjugation of the epsilon-amino group of the Lysine side chain with (2-[2-(2-Amino-ethoxy)-ethoxy]-acetyl)-(gamma-Glu)-CO-(CH2) 16-CO2H; SITE 20: n) [Example 23] | 25.5 nM
Y[Aib]QGT[αMePhe(2-F)]TSDYSILLDKIAAK([AEEA-γGlu-C20 diacid])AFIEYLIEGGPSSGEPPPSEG-NH2 [Example 296] | 21.8 nM
YXQGTXTSDXSIXLDXKAQXEFIEXLIEGGPSSGAPPPSGE (Aib, alpha-methyl residues, 4Pal, Orn, D-Glu, lipidated Lys, amide; synthetic construct; SITE 2: note = 2-Aminoisobutyric Acid; SITE 6: note = alpha-methyl-2-fluoro-L-phenylalanine; SITE 10: note = 3-(4-Pyridyl)-L-alanine; SITE 13: note = alpha-methyl-leucine; SITE 16: note = L-ornithine; SITE 17: note = Lysine is chemically modified through conjugation of the epsil) [Example 616] | 0.467 nM
YXQGTFTSDXSKXLDKKAQXAFIEYLIEXGESSGEPPPSGS (non-natural residues; C18 diacid-γGlu-AEEA on Lys; C-terminal amide; synthetic construct; SITE 2: note = 2-Aminoisobutyric Acid; SITE 10: note = 3-(4-Pyridyl)-L-alanine; SITE 13: note = alpha-methyl-leucine; SITE 17: note = Lysine is chemically modified through conjugation of the epsilon-amino group of the Lysine side chain with (2-[2-(2-Amino-ethoxy)-ethoxy]-acetyl)) [Example 282] | 22.1 nM
YXQGTFTSDXSXXLDKKAQXAFIEYLLEAGPSSXAPPPSGT (Aib, 4Pal, Orn, αMeL, D-Ala; acylated Lys; C-terminal amide; synthetic construct; SITE 2: note = 2-Aminoisobutyric Acid; SITE 10: note = 3-(4-Pyridyl)-L-alanine; SITE 12: note = L-ornithine; SITE 13: note = alpha-methyl-leucine; SITE 17: note = Lysine is chemically modified through conjugation of the epsilon-amino group of the Lysine side chain with (2-[2-(2-) [Example 275] | 27.7 nM
YXQGTXTSDXXIXLDXKAQXEFIEXLIEGGPPSGEPPPEGE (Aib, αMeF(2F), 4Pal, Orn, αMe residues, acylated Lys, amide; synthetic construct; SITE 2: note = 2-Aminoisobutyric Acid; SITE 6: note = alpha-methyl-2-fluoro-L-phenylalanine; SITE 10: note = 3-(4-Pyridyl)-L-alanine; SITE 11: note = alpha-methyl-L-serine; SITE 13: note = alpha-methyl-leucine; SITE 16: note = L-ornithine; SITE 17: note = Lysine is chemically mo) [Example 1191] | 0.931 nM
YXQGTFTSDFSKXLDKKAQXAFIEYLLAGGPSSGAPPPGGS (synthetic construct; SITE 2: note = 2-Aminoisobutyric Acid; SITE 13: note = alpha-methyl-leucine; SITE 17: note = Lysine is chemically modified through conjugation of the epsilon-amino group of the Lysine side chain with (2-[2-(2-Amino-ethoxy)-ethoxy]-acetyl)-(gamma-Glu)-CO-(CH2) 18-CO2H; SITE 20: n) [Example 16] | 35.9 nM
YXQGTFTSDFSXXLDKKAQXAFIEYLLEAGPSSGXPPPSGH (Aib, Orn, αMeL, D-Ala, 4Pal; acylated lysine; amide; synthetic construct; SITE 2: note = 2-Aminoisobutyric Acid; SITE 12: note = L-ornithine; SITE 13: note = alpha-methyl-leucine; SITE 17: note = Lysine is chemically modified through conjugation of the epsilon-amino group of the Lysine side chain with (2-[2-(2-Amino-ethoxy)-ethoxy]-acetyl)2-(gamma-Glu)) [Example 257] | 21 nM
YXQGTFTSDFSXXLDKKAQXAFIEYLLEAGPSSGAPPPSGH (C-terminal amide; lysine acylated with AEEA-γ-Glu-C18 diacid; synthetic construct; SITE 2: note = 2-Aminoisobutyric Acid; SITE 12: note = L-ornithine; SITE 13: note = alpha-methyl-leucine; SITE 17: note = Lysine is chemically modified through conjugation of the epsilon-amino group of the Lysine side chain with (2-[2-(2-Amino-ethoxy)-ethoxy]-acetyl)-(gamma-Glu)) [Example 259] | 18.4 nM
YXQGTXTSDXXIXLDXKAQXEFIEXLIEGGPPSXEPPPSGGGE (non-natural residues; acylated Lys; C-terminal amide; synthetic construct; SITE 2: note = 2-Aminoisobutyric Acid; SITE 6: note = alpha-methyl-2-fluoro-L-phenylalanine; SITE 10: note = 3-(4-Pyridyl)-L-alanine; SITE 11: note = alpha-methyl-L-serine; SITE 13: note = alpha-methyl-leucine; SITE 16: note = L-ornithine; SITE 17: note = Lysine is chemically mo) [Example 1201] | 1.02 nM
YXQGTXTSDXSIXLDKKAQXAFIEYLEEGGPSSGEPPPEGTGE (non-natural residues; lipidated Lys; C-terminal amide; synthetic construct; SITE 2: note = 2-Aminoisobutyric Acid; SITE 6: note = alpha-methyl-2-fluoro-L-phenylalanine; SITE 10: note = 3-(4-Pyridyl)-L-alanine; SITE 13: note = alpha-methyl-leucine; SITE 17: note = Lysine is chemically modified through conjugation of the epsilon-amino group of the Lysine) [Example 628] | 1.87 nM
YXQGTXTSDXSIXLDXKAQXEFIEXLAEGGPSSGAPPPSGS (non-natural residues, lysine acylation, C-terminal amide; synthetic construct; SITE 2: note = 2-Aminoisobutyric Acid; SITE 6: note = alpha-methyl-2-fluoro-L-phenylalanine; SITE 10: note = 3-(4-Pyridyl)-L-alanine; SITE 13: note = alpha-methyl-leucine; SITE 16: note = L-ornithine; SITE 17: note = Lysine is chemically modified through conjugation of the epsil) [Example 642] | 0.791 nM
YXQGTFTSDFSKXLDKKAQXQFIEYLLAGGPSSGEPPPSEG (synthetic construct; SITE 2: note = 2-Aminoisobutyric Acid; SITE 13: note = alpha-methyl-leucine; SITE 17: note = Lysine is chemically modified through conjugation of the epsilon-amino group of the Lysine side chain with (2-[2-(2-Amino-ethoxy)-ethoxy]-acetyl)-(gamma-Glu)-CO-(CH2) 16-CO2H; SITE 20: n) [Example 26] | 35.4 nM
YXQGTFTSDXXQXLDXKAQXQFIEXLIEXGPSSGAPPPSGGGE (not fully specified; non-natural residues; γGlu-C18 diacid on Lys; C-terminal amide; synthetic construct; SITE 2: note = 2-Aminoisobutyric Acid; SITE 10: note = 3-(4-Pyridyl)-L-alanine; SITE 11: note = alpha-methyl-L-serine; SITE 13: note = alpha-methyl-leucine; SITE 16: note = L-ornithine; SITE 17: note = Lysine is chemically modified through conjugation of the epsilon-amino group) [Example 1187] | 7.11 nM
Y[Aib]QGTFTSDFSK[αMeL]LDKK([AEEA-γGlu-C20 diacid])AQQAFIEYLLA[Aib]GPSSGEPPPSEG-NH2 [Example 19] | 66.2 nM
YXQGTXTSDXXIXLDXKAQXEFIEXLIEGGPPSXXPPPXGGGE (Lys acylated AEEA-γGlu-C18 diacid; non-natural residues; C-amide; synthetic construct; SITE 2: note = 2-Aminoisobutyric Acid; SITE 6: note = alpha-methyl-2-fluoro-L-phenylalanine; SITE 10: note = 3-(4-Pyridyl)-L-alanine; SITE 11: note = alpha-methyl-L-serine; SITE 13: note = alpha-methyl-leucine; SITE 16: note = L-ornithine; SITE 17: note = Lysine is chemically mo) [Example 1197] | 0.639 nM
YXQGTXTSDXSIXLDXKAQXEFIEXLLEGGPSSGAPPPSGE (non-natural residues, C-terminal amide, acylated Lys with fatty diacid; synthetic construct; SITE 2: note = 2-Aminoisobutyric Acid; SITE 6: note = alpha-methyl-2-fluoro-L-phenylalanine; SITE 10: note = 3-(4-Pyridyl)-L-alanine; SITE 13: note = alpha-methyl-leucine; SITE 16: note = L-ornithine; SITE 17: note = Lysine is chemically modified through conjugation of the epsil) [Example 613] | 0.791 nM
YXQGTXTSDXXIXLDXKAQXEFIEXLVEGGPSSGAPPPSGSE (Lys acylated (γGlu)2-C18 diacid; non-natural residues; C-amide; synthetic construct; SITE 2: note = 2-Aminoisobutyric Acid; SITE 6: note = alpha-methyl-2-fluoro-L-phenylalanine; SITE 10: note = 3-(4-Pyridyl)-L-alanine; SITE 11: note = alpha-methyl-L-serine; SITE 13: note = alpha-methyl-leucine; SITE 16: note = L-ornithine; SITE 17: note = Lysine is chemically mo) [Example 1162] | 0.656 nM
YXQGTFTSDFSKXLDKKAQXAFIEYLLAGGPSSGAPPPSGS (synthetic construct; SITE 2: note = 2-Aminoisobutyric Acid; SITE 13: note = alpha-methyl-leucine; SITE 17: note = Lysine is chemically modified through conjugation of the epsilon-amino group of the Lysine side chain with (2-[2-(2-Amino-ethoxy)-ethoxy]-acetyl)-(gamma-Glu)-CO-(CH2) 18-CO2H; SITE 20: n) [Example 14] | 34.7 nM
HXQGTXTSDYSILLDKKAAXAFIEYLIETGPSSGEPPPSEG (Aib, αMeF(2F), AEEA-γGlu-C20 diacid on Lys, amide; synthetic construct; SITE 2: note = 2-Aminoisobutyric Acid; SITE 6: note = alpha-methyl-2-fluoro-L-phenylalanine; SITE 17: note = Lysine is chemically modified through conjugation of the epsilon-amino group of the Lysine side chain with (2-[2-(2-Amino-ethoxy)-ethoxy]-acetyl)-(gamma-Glu)-CO-(CH2) 18-) [Example 290] | 53.4 nM
YXQGTFTSDFSXXLDKKAQXAFIEYLLEXGXSSGAPPPSGE (Aib, Orn, αMeL, 4Pal; lysine acylated C18 diacid; C-terminal amide; synthetic construct; SITE 2: note = 2-Aminoisobutyric Acid; SITE 12: note = L-ornithine; SITE 13: note = alpha-methyl-leucine; SITE 17: note = Lysine is chemically modified through conjugation of the epsilon-amino group of the Lysine side chain with (2-[2-(2-Amino-ethoxy)-ethoxy]-acetyl)-(gamma-Glu)) [Example 248] | 10.6 nM

Values from patent US20240270821A1
